# methodDescription: HUVEC cell viability (MTT assay)
# Format: cell-based
# measurementContext: human, HUVEC cells, 50 μM, read-out: reduction of viability of HUVEC cells

| compound | unitString | cytotoxicity at 72 h, 50 μM |
| --- | --- | --- |
| CNC(=O)c1ccc(N2C(=S)N(c3ccc(C#N)c(C(F)(F)F)c3)C(=O)C2(C)C)cc1F [MDV3100, Enzalutamide] | % | 17 |
